- Test system: giant foxtail
- measurement protocol: Test E preemergence
- Assay type: in vivo, Setaria faberii
- measurement context: 16 g ai/ha, scale 0 to 100 (0 no effect, 100 complete control)
- From the text: […]
result type: Foxtail, Giant plant response rating
# output: bare number, no unit

Study these solved cases before continuing.
>  <molecule>
FC(F)(F)c1cnn(-c2ccccc2Oc2ncc(Cl)cn2)c1 [Compound 16]

>  <assay system>
giant foxtail

>  <Foxtail, Giant plant response rating>
15

$$$$
>  <molecule>
N#Cc1cccc(Oc2ncc(Br)cn2)c1-n1cc(I)cn1 [Compound 88]

>  <assay system>
giant foxtail

>  <Foxtail, Giant plant response rating>
0

$$$$
>  <molecule>
N#Cc1cnn(-c2c(C#N)cccc2Oc2ncc(F)cn2)c1 [Compound 111]

>  <assay system>
giant foxtail

>  <Foxtail, Giant plant response rating>
0

$$$$
>  <molecule>
FC(F)(F)c1cnn(-c2c(Cl)cccc2Oc2ncc(Cl)cn2)c1 [Compound 167]

>  <assay system>
giant foxtail

>  <Foxtail, Giant plant response rating>
0

$$$$
>  <molecule>
N#Cc1cccc(Oc2ncc(F)cn2)c1-n1cc(Cl)cn1 [Compound 73]

>  <assay system>
giant foxtail

>  <Foxtail, Giant plant response rating>
0

$$$$

The value of Foxtail, Giant plant response rating measured for the molecule N#Cc1cnn(-c2c(CF)cccc2Oc2ncc(F)cn2)c1 [Compound 151] turned out to be 0

The value of Foxtail, Giant plant response rating measured for the molecule Clc1cnc(Oc2ccccc2-n2cc(Br)cn2)nc1 [Compound 7] turned out to be 20

---

- Test system: blackgrass
- measurement protocol: Test C postemergence
- Type: in vivo, Alopecurus myosuroides
- measurement context: 125 g ai/ha, postemergence; visual rating, scale 0 to 100 (0 no effect, 100 complete control)
Plant response rating, Blackgrass values by entry

The value of Plant response rating, Blackgrass measured for the molecule N#Cc1cn(-c2c(Br)cccc2Oc2ncc(Cl)cn2)nn1 [Compound 116] turned out to be 25

---

Plant response rating, Foxtail, Giant values by entry
- Tested on: giant foxtail
- measurement protocol: Test A postemergence
- Type: in vivo, Setaria faberii
- measurement context: 125 g ai/ha, 0 to 100 scale where 0 is no effect and 100 is complete control

Study these solved cases before continuing.
>  <structure notation>
FC(F)(F)c1ccn(-c2ccccc2Sc2ncc(Cl)cn2)n1

>  <Plant response rating, Foxtail, Giant>
0

$$$$
>  <structure notation>
FC(F)(F)c1ccn(-c2ccccc2Oc2ncc(Br)cn2)n1

>  <Plant response rating, Foxtail, Giant>
10

$$$$
>  <structure notation>
N#Cc1cnn(-c2c(C#N)cccc2Oc2ncc(F)cn2)c1

>  <Plant response rating, Foxtail, Giant>
80

$$$$
>  <structure notation>
COc1ccc(Oc2ncc(Cl)cn2)c(-n2cc(Br)cn2)c1

>  <Plant response rating, Foxtail, Giant>
0

$$$$
>  <structure notation>
N#Cc1cccc(Oc2ncc(F)cn2)c1-n1cc(Cl)cn1

>  <Plant response rating, Foxtail, Giant>
90

$$$$
>  <structure notation>
N#Cc1cccc(Oc2ncc(F)cn2)c1-n1cc(I)cn1

>  <Plant response rating, Foxtail, Giant>
90

$$$$
>  <structure notation>
Fc1cnc(Oc2cccc(Cl)c2-n2cc(OCC(F)(F)F)cn2)nc1

>  <Plant response rating, Foxtail, Giant>
70

$$$$
>  <structure notation>
Clc1cnc(Oc2ccccc2-n2cnc(Br)n2)nc1

>  <Plant response rating, Foxtail, Giant>
0

$$$$

Let us move to another entry and its Plant response rating, Foxtail, Giant.
The value of Plant response rating, Foxtail, Giant measured for the compound CC(C)(C)c1cnn(-c2c(C#N)cccc2Oc2ncc(Cl)cn2)c1 turned out to be 0

---

Barnyardgrass plant response rating (0 to 100 scale) values by entry
- Test system: barnyardgrass
- measurement protocol: Test A preemergence
- Assay type: in vivo, Echinochloa crus-galli
- measurement context: 31 g ai/ha

Study these solved cases before continuing.
>  <structure notation>
FCc1cccc(Oc2ncc(Br)cn2)c1-n1cc(Br)cn1

>  <measured result>
10

$$$$
>  <structure notation>
Fc1cccc(Oc2ncc(Cl)cn2)c1-n1cc(C2CCCC2)nn1

>  <measured result>
0

$$$$
>  <structure notation>
FCc1cccc(Oc2ncc(F)cn2)c1-n1cc(C(F)(F)F)cn1

>  <measured result>
50

$$$$
>  <structure notation>
Fc1cnc(Oc2cccc(Cl)c2-n2cc(OCC(F)(F)F)cn2)nc1

>  <measured result>
20

$$$$

Let us move to another entry and its Barnyardgrass plant response rating (0 to 100 scale).
The value of Barnyardgrass plant response rating (0 to 100 scale) measured for the compound FCc1cccc(Oc2ncc(Cl)cn2)c1-n1cc(C(F)(F)F)cn1 turned out to be 30

---

- System: fall panicum
- measurement protocol: Test E preemergence
- Assay type: in vivo, Panicum dichotomiflorum
- measurement context: 62 g ai/ha, scale 0 to 100 (0 no effect, 100 complete control)
- Source text: […]
result type: Panicum, Fall plant response rating
# output: bare number, no unit

Study these solved cases before continuing.
>  <structure notation>
N#Cc1cccc(Oc2ncc(F)cn2)c1-n1cc(Cl)cn1

>  <Panicum, Fall plant response rating>
98

$$$$
>  <structure notation>
CCOc1cnn(-c2c(C#N)cccc2Oc2ncc(F)cn2)c1

>  <Panicum, Fall plant response rating>
65

$$$$
>  <structure notation>
N#Cc1cccc(Oc2ncc(Br)cn2)c1-n1cc(I)cn1

>  <Panicum, Fall plant response rating>
0

$$$$

The value of Panicum, Fall plant response rating measured for the molecule N#Cc1cnn(-c2c(C#N)cccc2Oc2ncc(F)cn2)c1 turned out to be 80

The value of Panicum, Fall plant response rating measured for the molecule N#Cc1cccc(Oc2ncc(Br)cn2)c1-n1cc(C(F)(F)F)cn1 turned out to be 98

The value of Panicum, Fall plant response rating measured for the molecule N#Cc1cnn(-c2c(CF)cccc2Oc2ncc(F)cn2)c1 turned out to be 100

---

Plant response rating, Velvetleaf values by entry
- System: velvetleaf
- measurement protocol: Test A postemergence
- Assay type: in vivo, Abutilon theophrasti
- measurement context: 125 g ai/ha, 0 to 100 scale where 0 is no effect and 100 is complete control

>  <compound>
FC(F)(F)c1ccn(-c2ccccc2Oc2ncc(Br)cn2)n1 [Compound 1]

>  <Plant response rating, Velvetleaf>
20

$$$$
>  <compound>
Cc1nn(-c2ccccc2Oc2ncc(Cl)cn2)cc1Br [Compound 37]

>  <Plant response rating, Velvetleaf>
20

$$$$
>  <compound>
FC(F)(F)c1cnc(Oc2ccccc2-n2cc(C(F)(F)F)cn2)nc1 [Compound 17]

>  <Plant response rating, Velvetleaf>
50

$$$$
>  <compound>
Cc1ccn(-c2ccccc2Oc2ncc(Cl)cn2)n1 [Compound 36]

>  <Plant response rating, Velvetleaf>
20

$$$$
>  <compound>
Brc1cnc(Oc2ccccc2-n2cc(Br)cn2)nc1 [Compound 8]

>  <Plant response rating, Velvetleaf>
100

$$$$
>  <compound>
N#Cc1cccc(Oc2ncc(Cl)cn2)c1-n1cnc(Br)c1 [Compound 74]

>  <Plant response rating, Velvetleaf>
90

$$$$

The value of Plant response rating, Velvetleaf measured for the compound FC(F)(F)c1ccn(-c2ccccc2Sc2ncc(Cl)cn2)n1 [Compound 28] turned out to be 0

---

- Tested on: yellow nutsedge
- measurement protocol: Test E preemergence
- Type: in vivo, Cyperus esculentus
- measurement context: 125 g ai/ha, scale 0 to 100, 0 no effect, 100 complete control
result type: Plant response rating, Nutsedge, Yellow
# output: bare number, no unit

Study these solved cases before continuing.
>  <structure notation>
N#Cc1cnn(-c2c(CF)cccc2Oc2ncc(F)cn2)c1

>  <result type>
Plant response rating, Nutsedge, Yellow

>  <measured result>
0

$$$$
>  <structure notation>
FC(F)(F)c1cnn(-c2ccccc2Oc2ncc(Br)cn2)c1

>  <result type>
Plant response rating, Nutsedge, Yellow

>  <measured result>
0

$$$$
>  <structure notation>
N#Cc1cccc(Oc2ncc(Cl)cn2)c1-n1cc(C(F)(F)F)cn1

>  <result type>
Plant response rating, Nutsedge, Yellow

>  <measured result>
60

$$$$
>  <structure notation>
FC(F)(F)COc1cnn(-c2ccccc2Oc2ncc(Cl)cn2)c1

>  <result type>
Plant response rating, Nutsedge, Yellow

>  <measured result>
40

$$$$

The value of Plant response rating, Nutsedge, Yellow measured for the compound Clc1cnc(Oc2ccccc2-n2cc(Br)cn2)nc1 turned out to be 0

---

Soybean plant response rating values by entry
- System: soybean
- measurement protocol: Test C preemergence
- Assay type: in vivo, Glycine max
- measurement context: 125 g ai/ha, preemergence; scale 0 (no effect) to 100 (complete control)
# output: bare number, no unit

>  <structure notation>
N#Cc1cccc(Oc2ncc(F)cn2)c1-n1cc(I)cn1

>  <measured result>
85

$$$$
>  <structure notation>
CCOc1cn(-c2c(Br)cccc2Oc2ncc(Cl)cn2)nn1

>  <measured result>
70

$$$$
>  <structure notation>
Fc1cccc(Oc2ncc(Cl)cn2)c1-n1cc(I)cn1

>  <measured result>
65

$$$$

The value of Soybean plant response rating measured for the molecule N#Cc1cnn(-c2c(CF)cccc2Oc2ncc(F)cn2)c1 turned out to be 95
